# Tested on: 786-0 renal
# assay notes: NCI tumour cell line growth inhibition, 48 h
metric: log10(TGI) (log10 of the value in µM)
Friendly reminder: values = log10 of TGI, unit µM.

Worked set:
• CCN1C(=O)N(CC)C2C1NN=c1s/c(=C\c3cc4ccccc4[nH]3)c(=O)n12 (stereo unspecified) = 1.35
• Cn1ccnc1C(=O)/C=C/c1ccc(CC(=O)Nc2ccc(C(F)(F)F)cc2)cc1 = 0.61
• C=C=C(Sc1ccccc1)C(C)(C)OC(C)=O = 1.48
• CC1CCC(C(C)C)C(O[C@@H]2OC(=O)C[C@@H]2Sc2ccccc2)C1 (stereo partly specified) = 1.66
• CSc1ccccc1C#Cc1ccccc1C#CCCCCO = 1.42

Would you mind telling me what log10(TGI) value was observed for `O=C1OCC/C1=C/c1ccc(N=Nc2c(O)ccc3ccccc23)cc1` ?
1.56

Another molecule to look at: CCCCNC(=O)NS(=O)(=O)c1ccc(N2N=C(c3cc(C)ccc3C)CC2c2cc(OC)c(OC)c(OC)c2)cc1 (stereo unspecified)
1.21

How about `Clc1nc(NCCc2ccccc2)c2ncn(-c3ccccc3)c2n1` ?
1.50

Proceed to `Oc1ccc(/C=C/c2ccc3cccc(O)c3n2)cc1O`
1.71

Another: `COC(=O)C1=C(C)NC(C)=C(C(=O)OC)C1c1cccc(NO)c1`
1.45

Would you mind doing CN(C)CC1CCCCCC(CN(C)C)C1=O (stereo unspecified) as well?
1.52

Repeat with `COc1cc(C(=O)/C=C/c2cccnc2Nc2ccccc2)cc(OC)c1OC`
0.42

Also, `O=C(/C=C/c1ccccc1)CSc1nc2ccc(I)cc2c(=O)n1Cc1ccccc1` please.
1.56

Another: `O=C1C(=C(I)I)c2ccccc2-c2ccccc21`
0.64

Try this molecule too: c1ccc(P(CCP(CCP(c2ccccc2)c2ccccc2)c2ccccc2)CCP(c2ccccc2)c2ccccc2)cc1 (stereo unspecified)
0.51

What do you have for Cc1ccc(S(=O)(=O)NNC2(NS(=O)(=O)c3ccc(Cl)cc3)C(Cl)=C(Cl)C(=O)c3ccccc32)cc1 (stereo unspecified) ?
1.45

====

# Tested on: ACHN renal
# assay notes: NCI tumour cell line growth inhibition, 48 h
# TGI values compiled below
Express your answer in µM, writing the number without its unit.

A selection of reference data follows.
* Nc1n[nH]c2cccc(C#Cc3cccc(C(=O)Nc4cc(CN5CCOCC5)cc(C(F)(F)F)c4)c3)c12 | 11.8
* CCN(CC)c1ccc(C(=N)c2ccc(N(C)C)cc2)cc1 | 12
* O=C(COc1cccc(/C=C2\COc3ccc(Cl)cc3C2=O)c1)c1ccc(Cl)cc1 | 29.4
* O=C(CN(/C=C/C(=O)C(F)(F)F)c1ccccc1)c1ccc(Cl)c(Cl)c1 | 27.9
* COC(=O)C(F)C(Br)C(=O)OC (centres undefined) | 3.39

What value of measured TGI is listed for `CC(C)/C(Cl)=N\OC(=O)Nc1ccc(F)cc1F` ?
8.53

What do you get for `COc1ccc(-c2nn(-c3cccc(Cl)c3)cc2-c2cc(-c3ccccc3)nc(N)n2)cc1` ?
15.8

Please give the result for `O=C(CCCSc1nc(-c2ccccc2)cc(-c2ccc(Cl)cc2)n1)NO` too.
4.38

Same question for CCOC(=O)C1(C/C=C\CBr)CCCCCCCCCCC1=O (centres undefined) please.
32

# repeat for `COc1cc(Oc2nc3c(N)cc(C(F)(F)F)cc3nc2-c2ccccc2)cc(OC)c1OC`
32.5

====

# Test system: MDA-MB-231 breast
# assay notes: NCI tumour cell line growth inhibition, 48 h
Here, each record is paired with measured log10 TGI data.
Values are log10 of TGI in µM.

Examples from the recorded data:
* C/C=C/[C@@H]1OC(=O)C2=C[C@@H](O)[C@@H](/C=C/C)O[C@H]21 | 1.47
* O=C1/C(=C/c2ccccc2)CCC/C1=C\c1ccc(O)c(CN2CCCCC2)c1 | 0.80

Given `CN(C)c1ccc(C(=C2C=CC(=[N+](C)C)C=C2)c2ccc(N(C)C)cc2)cc1` , state its recorded log10 TGI.
0.10

Again, but for CC12CC(OC(=O)[C@]1(C)O)[C@@H]([C@]1(O)CC[C@H]3[C@@H]4C[C@H]5O[C@]56[C@@H](O)C=CC(=O)[C@]6(C)[C@H]4CC[C@@]31C)C2 (some centres undefined)
1.22

Follow-up item: `O=C1C(=C(I)I)c2ccccc2-c2ccccc21`
0.63

====

# Test system: SN12C renal
# assay notes: NCI tumour cell line growth inhibition, 48 h
Measured TGI accompanies every entry in the list below.

Observe how each entry below is paired with its result.
- CCOC(=O)Nc1nn(C)c(=NCc2ccccc2)s1: > 100 µM
- Cn1ccnc1C(=O)/C=C/c1ccc(CC(=O)Nc2ccc(C(F)(F)F)cc2)cc1: > 16.7 µM
- CC(C)(CO)NC(=O)Nc1c(C(F)(F)F)cc(-c2ccccc2)[nH]c1=O: > 100 µM
- C[C@]12CCc3sc(Nc4ccc(O)cc4)nc3C1=CC[C@@H]1[C@@H]2CC[C@]2(C)C(=O)CC[C@@H]12: > 100 µM

Requested read-out: TGI. Entry: C[C@@H](NC1CCC[C@H]1O)c1ccccc1 (stereo partly specified)
> 100 µM

Also `CCC(=O)N(O)C(C)(C)C` ?
> 100 µM

====

The following compounds are shown together with reported TGI values.
# Test system: EKVX NSCLC
# assay notes: NCI tumour cell line growth inhibition, 48 h

* O=C1[C@@H]2C[C@@H](O)CN2C(=O)c2ccccc2N1CCCO | > 100 µM
* CN1CCN(c2cc(-c3cc4ccccc4o3)oc(=O)c2C#N)CC1 | > 100 µM

For the compound `Cc1ccc(Sc2ccc(C)cc2[N+](=O)[O-])c([N+](=O)[O-])c1` , what TGI is on record?
> 100 µM

====

# Tested on: HT29 colon
# assay notes: NCI tumour cell line growth inhibition, 48 h; in the data active = GI50 below about 0.43 µM; inactive = the rest
Use one of these outcomes when replying: active, inactive

Illustrative cases are given below, each with its answer.
• CC(=O)O[C@H]1CC[C@@]2(C)[C@@H](CC[C@@H]3[C@@H]2CC[C@]2(C)C=C(C=O)C[C@@H]32)C1 = inactive
• CC(C)N1C(NNC(=O)c2cnccn2)=NS(=O)(=O)c2ccccc21 = inactive
• O=C(CN1CCN(c2ccccc2)CC1)N1CCN(c2nnc(-c3ccc(Cl)cc3)c(-c3ccc(Cl)cc3)n2)CC1 = inactive

Could you kindly confirm the outcome this assay logged for `Cc1[nH]c2ccccc2c1CCNCc1ccc(/C=C/C(=O)NO)cc1` ?
active

====

# Tested on: SW-620 colon
# assay notes: NCI tumour cell line growth inhibition, 48 h
Some compounds, each annotated with its measured TGI.

Previously resolved entries follow.
- CCc1nnc(-c2nsc3ccccc23)s1: > 100 µM
- N=C(N)c1ccc(COc2ccccc2OCc2ccc(C(=N)N)cc2)cc1: > 100 µM
- CC1=N[C@](C)(C2CC3C=CC2C3=O)COC1=O (stereo partly drawn): > 100 µM
- c1ccc(CSc2nnc3c4ccccc4c4ccccc4c3n2)cc1: > 100 µM
- COC(=O)C1=C(OC(=O)c2ccc(Cl)cc2)C(C(=O)OC)[C@@]2(O)[C@@H](C(=O)OC)C(c3ccccc3Cl)C[C@@H]1[C@@H]2C(=O)OC (stereo partly drawn): > 100 µM

What measured TGI goes with C=C1CCc2occ(C)c2C2C1C1=C(CC(C)C1=O)C1OC12C (stereo not drawn) ?
> 100 µM

Next entry: `COc1ccc(-c2c3c(nc4nc(SC)nc(SC)c24)CCCC3)cc1OC`
> 100 µM

And what about the compound `N#Cc1[nH]c(=O)n(-c2cccc3ccccc23)c1N` ?
> 10 µM

Further, for COc1cccc(C2SCC(=O)N2c2ccc(-n3c(-c4ccccc4)nc4ccccc4c3=O)cc2)c1OC (stereo not drawn) ?
> 100 µM

Same question for COc1cc(C2CC(c3ccc(N(C)C)cc3)=NN2C(C)=O)cc(OC)c1OC (stereo not drawn) please.
> 100 µM

Next compound up: `CN(C)c1ccc(C(=C2C=CC(=[N+](C)C)C=C2)c2ccc(N(C)C)cc2)cc1`
1.23 µM

Next entry: CCCCCC[C@H]1C(=O)O[C@H](C)[C@H](NC(=O)c2cccc(NC=O)c2OC)C(=O)O[C@@H](C)[C@@H]1OC(=O)CC(C)C (tested in a mixture with another compound)
> 100 µM

# repeat for CC(C)C12C=CC(C)(CC1)n1c(=O)c3cc4ccccc4cc3c(=O)n12 (stereo not drawn)
> 100 µM

Next compound: `O=C(/C=C/c1ccc(Cl)cc1)c1cccs1`
30.4 µM

Cool, now `O=C1OCC/C1=C/c1ccc(N=Nc2c(O)ccc3ccccc23)cc1`
40 µM

Same read-out for O=C(CNC(=O)OCc1ccccc1)NCCCCC(NC(=O)OCc1ccccc1)C(=O)NC(CCCCNC(=O)CNC(=O)OCc1ccccc1)C(=O)OCc1ccccc1 (stereo not drawn) ?
> 62.5 µM

Item: c1ccc2c(c1)nc1n2C2CCC(C2)N1 (stereo not drawn)
> 10 µM

Item: `CS/C(=N\c1nccs1)NC(=O)c1cccc(Cl)c1`
> 100 µM
